Target: HIV protease (Human immunodeficiency virus type 1 group M subtype B, UniProt P04585)
Construct: HIV protease is diluted in the assay buffer to a final enzyme concentration of 12.3 nanomolar, based on a molecular weight of 10,780
Assay: HIV protease enzyme assay (fluorescence, peptide substrate)
Format: biochemical
Settings: IC50 values printed in nM; read-out: IC50 or % inhibition
Experimental: The compounds of the present invention are effective HIV protease inhibitors. Utilizing an enzyme assay as described below, the compounds set forth in the examples herein disclosed inhibited the HIV enzyme. […] The final concentration of DMSO is 14% and the final concentration of glycerol is 18%. […] The increase in fluorescence is monitored at 4 time points (0, 8, 16 and 24 minutes) at ambient temperature. […]

MOLECULE	IC50, nM
CC(C)CN(C[C@@H](O)[C@H](Cc1ccccc1)NC(=O)OCc1ccccc1)S(=O)(=O)Nc1ccccc1 [E]	70
